The values you see were collected from the supplement of paper PMC5998384.

Test system: HeLa Kyoto;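 further: synchronized HeLa Kyoto cells, proteins quantified by TMT10plex mass spectrometry, three biological replicates, mitosis taken 0.5 h after nocodazole release, G1/S directly after double thymidine block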
assay overview: thermal stability score vs G1/S (z-score of summed log2 fold changes over temperatures); higher = more thermally stable than in G1/S
measurement setup: cell cycle stage: mitosis
Threshold check on thermal stability score: at or above 2 gives 1, strictly below gives -1.

# sequence data, assigned category
measured = [
    ("MGLETEKADVQLFMDDDSYSHHSGLEYADPEKFADSDQDRDPHRLNSHLKLGFEDVIAEPVTTHSFDKVWICSHALFEISKYVMYKFLTVFLAIPLAFIAGILFATLSCLHIWILMPFVKTCLMVLPSVQTIWKSVTDVIIAPLCTSVGRCFSSVSLQLSQD [CAV2]", -1),
    ("MAQLGAVVAVASSFFCASLFSAVHKIEEGHIGVYYRGGALLTSTSGPGFHLMLPFITSYKSVQTTLQTDEVKNVPCGTSGGVMIYFDRIEVVNFLVPNAVYDIVKNYTADYDKALIFNKIHHELNQFCSVHTLQEVYIELFDQIDENLKLALQQDLTSMAPGLVIQAVRVTKPNIPEAIRRNYELMESEKTKLLIAAQKQKVVEKEAETERKKALIEAEKVAQVAEITYGQKVMEKETEKKISEIEDAAFLAREKAKADAECYTAMKIAEANKLKLTPEYLQLMKYKAIASNSKIYFGKDIPNMFMDSAGSVSKQFEGLADKLSFGLEDEPLETATKEN [ERLIN2]", -1),
    ("MASVGECPAPVPVKDKKLLEVKLGELPSWILMRDFSPSGIFGAFQRGYYRYYNKYINVKKGSISGITMVLACYVLFSYSFSYKHLKHERLRKYH [ATP5J2]", -1),
    ("MFRFMRDVEPEDPMFLMDPFAIHRQHMSRMLSGGFGYSPFLSITDGNMPGTRPASRRMQQAGAVSPFGMLGMSGGFMDMFGMMNDMIGNMEHMTAGGNCQTFSSSTVISYSNTGDGAPKVYQETSEMRSAPGGIRETRRTVRDSDSGLEQMSIGHHIRDRAHILQRSRNHRTGDQEERQDYINLDESEAAAFDDEWRRETSRFRQQRPLEFRRLESSGAGGRRAEGPPRLAIQGPEDSPSRQSRRYDW [MLF2]", 1),
    ("MVWKRLGALVMFPLQMIYLVVKAAVGLVLPAKLRDLSRENVLITGGGRGIGRQLAREFAERGARKIVLWGRTEKCLKETTEEIRQMGTECHYFICDVGNREEVYQTAKAVREKVGDITILVNNAAVVHGKSLMDSDDDALLKSQHINTLGQFWTTKAFLPRMLELQNGHIVCLNSVLALSAIPGAIDYCTSKASAFAFMESLTLGLLDCPGVSATTVLPFHTSTEMFQGMRVRFPNLFPPLKPETVARRTVEAVQLNQALLLLPWTMHALVILKSILPQAALEEIHKFSGTYTCMNTFKGRT [DHRS3]", -1),
    ("MSSFSESALEKKLSELSNSQQSVQTLSLWLIHHRKHAGPIVSVWHRELRKAKSNRKLTFLYLANDVIQNSKRKGPEFTREFESVLVDAFSHVAREADEGCKKPLERLLNIWQERSVYGGEFIQQLKLSMEDSKSPPPKATEEKKSLKRTFQQIQEEEDDDYPGSYSPQDPSAGPLLTEELIKALQDLENAASGDATVRQKIASLPQEVQDVSLLEKITDKEAAERLSKTVDEACLLLAEYNGRLAAELEDRRQLARMLVEYTQNQKDVLSEKEKKLEEYKQKLARVTQVRKELKSHIQSLPDLSLLPNVTGGLAPLPSAGDLFSTD [RPRD1B]", -1),
]
